Source: patent US7960375B2

Parameter: melting point. Scope: all listed entries.
Measured Endpoint: melting point

CCC(=O)N1N=C(c2ccc(N)c(C)c2)c2cc(Cl)ccc2C=C1C
218 to 221 °C
CC(=O)N1N=C(c2ccc(N)c(C)c2)c2cc(Cl)ccc2C=C1C
209 to 211 °C
CNC(=O)N1N=C(c2ccc(N)c(C)c2)c2cc(Cl)ccc2C=C1C [Example 8]
210 to 212 °C
CC1=Cc2ccc(Cl)cc2C(c2ccc(N)c(C)c2)=NN1C(=O)NC1CC1 [Example 9]
233 to 236 °C
